Data origin: patent US10368545B2

# measurement.notes: log P by HPLC on reversed-phase C18 columns (OECD Guideline 117)
# Type: physicochemical
# condition.label: reversed-phase C18 HPLC column, pH 2.7, acidic range, pH 2.7, 0.1% aqueous formic acid / acetonitrile; read-out: log P[a]
assay.metric: chromatographic logP

A. CN(C(=O)c1cncn1Cc1ccccc1)c1cccnc1
B. Cn1cc(C(=O)O)nc1Br
C. Cn1c(C(=O)O)cnc1Br
D. Cn1cc(C(=O)OC(C)(C)C)nc1Br
Sort the 4 molecules by chromatographic logP; largest first, smallest last. Write the labels in rank order as requested.
D, A, C, B

a. CN(C(=O)c1cnc(Sc2ncccn2)n1C)c1cccnc1
b. CN(C(=O)c1cn(C)c(Sc2ncccn2)n1)c1cccnc1
c. Cc1cc(C)nc(Sc2ncc(C(=O)N(C)c3cccnc3)n2C)n1
Order the 3 molecules from highest to lowest chromatographic logP. Response format: the labels, sorted as the prompt asks.
c, a, b
(c: 1.31, a: 0.69, b: 0.42)

a. Cn1cnc(C(=O)OC(C)(C)C)c1
b. CN(C(=O)c1cnc(SCC2CC2)n1C)c1cccnc1
Of the two listed items, a and b , which carries the larger chromatographic logP figure? Give the label under which the chosen entry appears.
b

* * *

# measurement.notes: log P by HPLC on reversed-phase C18 columns (OECD Guideline 117);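 for logP[b]: method b is the neutral LC-MS method at pH 7.8 with ammonium hydrogencarbonate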
# Assay type: physicochemical
# condition.label: reversed-phase C18 HPLC column, pH 7.8, method [b]; read-out: logP[b]
# Procedure: The log P values were determined in accordance with OECD Guideline 117 (EC Directive 92/69/EEC) by HPLC (high-performance liquid chromatography) using reversed-phase (RP) columns (C18), by the following methods: [a] The LC-MS determination in the acidic range was carried out at pH 2.7 with 0.1% aqueous formic acid and acetonitrile (contains 0.1% formic acid) as mobile phases; linear gradient from 10% acetonitrile to 95% acetonitrile. [b] […]
assay.metric: chromatographic logP

In the examples that follow, each entry is paired with its recorded chromatographic logP.
Reported chromatographic logP, compound CSc1ncc(C(=O)N(C)c2cccnc2)n1C : ____
1.04

Lookup CN(C(=O)c1cnc(S(=O)(=O)c2ccc(F)cc2)n1C)c1ccc[n+]([O-])c1
1.23

Follow-up item: CN(C(=O)c1cnc(Sc2ncccn2)n1Cc1ccccc1)c1cccnc1
1.78

I. CN(C(=O)c1cnc(Sc2ccc(F)cc2)n1C)c1cccnc1
II. CNC(=O)C[S+]([O-])c1ncc(C(=O)N(C)c2cccnc2)n1C (stereo not shown)
Which shows the larger chromatographic logP value: I or II ? Answer by quoting the chosen item's label.
I

* * *

# measurement.notes: log P by HPLC on reversed-phase C18 columns (OECD Guideline 117);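 for logP[b]: method b is the neutral LC-MS method at pH 7.8 with ammonium hydrogencarbonate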
# Format: physicochemical
# condition.label: method [b]
assay.metric: logP[b]

Please review the entries below; each comes with its answer.
Need logP[b], item Cc1cc(C)nc(Sc2ncc(C(=O)Nc3cccnc3)n2C)n1
1.97

Also need CCSc1ncc(C(=O)Nc2cccnc2)n1C , thanks.
1.54

Next record, please: CSCCSc1ncc(C(=O)N(C)c2cccnc2)n1C
1.55

I. CN(C(=O)c1cnc(Sc2ccccc2S(=O)(=O)N(C)C)n1C)c1cccnc1
II. CN(C(=O)c1cnc(SCC(N)=O)n1C)c1cccnc1
Between I and II , whose measured logP[b] reads higher? Lab log: write the label of the selected item as the result.
I

* * *

# measurement.notes: log P by HPLC on reversed-phase C18 columns (OECD Guideline 117);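 for logP[b]: method b is the neutral LC-MS method at pH 7.8 with ammonium hydrogencarbonate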
# Format: physicochemical
# condition.label: method [b]
assay.metric: logP[b]

a. CN(C(=O)c1cnc(S(=O)(=O)c2ccc(C(C)(C)C)cc2)n1C)c1cccnc1
b. COCCSc1ncc(C(=O)N(C)c2cccnc2)n1C
Param metric = logP[b]; output whichever of a , b has the minimum value. Reply with the label of the item you choose.
b
(b: 1.14, a: 2.55)
